- Assayed System: T1, human 5T4-His protein (human, UniProt Q13641 32-355)
- T1 construct: also called recombinant 5T4 protein (human 5T4-his tag); human 5T4 protein; not shown: His tag
- T1 sequence (looked up): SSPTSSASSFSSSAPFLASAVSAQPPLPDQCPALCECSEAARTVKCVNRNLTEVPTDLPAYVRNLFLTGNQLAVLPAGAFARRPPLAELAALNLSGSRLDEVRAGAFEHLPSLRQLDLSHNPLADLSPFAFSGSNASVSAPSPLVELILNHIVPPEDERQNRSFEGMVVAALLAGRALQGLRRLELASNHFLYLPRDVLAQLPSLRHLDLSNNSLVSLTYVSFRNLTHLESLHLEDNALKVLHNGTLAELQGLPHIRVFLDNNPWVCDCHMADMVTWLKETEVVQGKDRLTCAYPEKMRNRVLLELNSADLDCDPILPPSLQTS
- Experimental Protocol: SPR Biacore, Protein A capture
- Protocol: The binding of the 393E9 humanized antibodies to recombinant 5T4 protein (human 5T4-his tag) was tested with Biacore using a capture method. The mAbs were captured using Protein A chip. A serial dilution of human 5T4-his tag protein was injected over captured antibody for 3 mins at a flow rate of 30 μl/min. The antigen was allowed to dissociate for 280-800 s. All the experiments were carried out on a Biacore T200. Data analysis was carried out using the Biacore T200 evaluation software.
pKd: −log10 of the molar value.
pKd: recorded values
Experimental Endpoint: pKd

Binder	Experimental Endpoint	Quantitative Readout
393E9_hVH1_hVL5 (antibody, V domains shown, humanized) VH: EVQLVESGGGLVQPGGSLRLSCAASGFTFTDYYMSWVRQAPGKGLEWVGFIRNKGNGYTTENSASVKGRFTISRDNSKSTLYLQMNSLRAEDTAVYYCARYRGNPHYAMDYWGQGTLVTVSS VL: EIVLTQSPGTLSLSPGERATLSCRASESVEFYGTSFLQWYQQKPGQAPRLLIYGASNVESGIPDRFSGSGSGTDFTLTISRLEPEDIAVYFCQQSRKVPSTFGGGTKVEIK	pKd	9.29
393E9_hVH2_hVL2 (antibody, V domains shown, humanized) VH: EVQLVESGGGLIQPGGSLRLSCAASGFTFTDYYMSWVRQPPGKGLEWVGFIRNKGNGYTTENSASVKGRFTISRDNSKSTLYLQMNSLRAEDTAVYYCARYRGNPHYAMDYWGQGTLVTVSS VL: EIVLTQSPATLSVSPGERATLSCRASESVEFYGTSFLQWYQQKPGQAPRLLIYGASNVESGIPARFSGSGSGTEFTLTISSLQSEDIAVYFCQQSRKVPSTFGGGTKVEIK	pKd	9.23
393E9_hVH2_hVL1 (antibody, V domains shown, humanized) VH: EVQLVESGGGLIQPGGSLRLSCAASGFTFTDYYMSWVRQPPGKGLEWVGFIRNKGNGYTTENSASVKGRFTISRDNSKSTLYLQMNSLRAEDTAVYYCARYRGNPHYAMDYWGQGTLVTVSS VL: DIVLTQSPDSLAVSLGERATINCRASESVEFYGTSFLQWYQQKPGQPPKLLIYGASNVESGVPDRFSGSGSGTDFTLTISSLQAEDIAVYFCQQSRKVPSTFGGGTKVEIK	pKd	9.26
393E9_hVH3_hVL3 (antibody, V domains shown, humanized) VH: QVQLVESGGGVVQPGGSLRLSCAASGFTFTDYYMSWVRQAPGKGLEWVGFIRNKGNGYTTENSASVKGRFTISRDNSKSTLYLQMNSLRAEDTAVYYCARYRGNPHYAMDYWGQGTLVTVSS VL: DIQLTQSPSSLSASVGDRVTITCRASESVEFYGTSFLQWYQQKPGKAPKLLIYGASNVESGVPSRFSGSGSGTDFTLTISSLQPEDIATYFCQQSRKVPSTFGGGTKVEIK	pKd	9.24
393E9_hVH6_hVL2 (antibody, V domains shown, humanized; also called Hu393E9-62) VH: EVQLVESGGGLVQPGGSLRLSCAASGFTFTDYYMSWVRQAPGKGLEWVGFIRNKGNGYTTENSASVKGRFTISRDNAKSSLYLQMNSLRAEDTAVYYCARYRGNPHYAMDYWGQGTLVTVSS VL: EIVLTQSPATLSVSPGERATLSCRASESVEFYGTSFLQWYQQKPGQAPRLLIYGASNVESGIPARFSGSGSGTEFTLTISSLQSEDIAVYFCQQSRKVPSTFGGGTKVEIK	pKd	9.16
393E9_hVH2_hVL3 (antibody, V domains shown, humanized) VH: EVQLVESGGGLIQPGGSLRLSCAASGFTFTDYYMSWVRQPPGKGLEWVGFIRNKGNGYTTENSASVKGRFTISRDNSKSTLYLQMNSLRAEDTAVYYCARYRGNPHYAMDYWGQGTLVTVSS VL: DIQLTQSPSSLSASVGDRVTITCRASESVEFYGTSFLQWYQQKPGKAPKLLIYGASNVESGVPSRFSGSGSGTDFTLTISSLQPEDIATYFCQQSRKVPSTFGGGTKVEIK	pKd	9.16
393E9_hVH3_hVL4 (antibody, V domains shown, humanized) VH: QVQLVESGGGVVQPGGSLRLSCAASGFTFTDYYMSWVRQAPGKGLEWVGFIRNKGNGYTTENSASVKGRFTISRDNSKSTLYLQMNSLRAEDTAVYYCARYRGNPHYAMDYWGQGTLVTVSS VL: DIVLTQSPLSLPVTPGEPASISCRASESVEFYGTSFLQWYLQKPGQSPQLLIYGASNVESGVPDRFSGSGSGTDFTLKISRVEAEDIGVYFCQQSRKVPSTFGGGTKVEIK	pKd	9.24
393E9_hVH4_hVL5 (antibody, V domains shown, humanized; also called Hu393E9-45) VH: EVQLVESGGGLVQPGGSLRLSCAASGFTFTDYYMSWVRQAPGKGLEWVGFIRNKGNGYTTENSASVKGRFTISRDNSKSSLYLQMNSLKTEDTAVYYCARYRGNPHYAMDYWGQGTLVTVSS VL: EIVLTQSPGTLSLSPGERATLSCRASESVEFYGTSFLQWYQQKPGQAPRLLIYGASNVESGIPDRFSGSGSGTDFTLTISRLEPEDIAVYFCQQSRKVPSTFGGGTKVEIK	pKd	9.23
393E9_hVH5_hVL5 (antibody, V domains shown, humanized) VH: EVQLVESGGGLVQPGRSLRLSCTASGFTFTDYYMSWVRQAPGKGLEWVGFIRNKGNGYTTENSASVKGRFTISRDNSKSILYLQMNSLKTEDTAVYYCARYRGNPHYAMDYWGQGTLVTVSS VL: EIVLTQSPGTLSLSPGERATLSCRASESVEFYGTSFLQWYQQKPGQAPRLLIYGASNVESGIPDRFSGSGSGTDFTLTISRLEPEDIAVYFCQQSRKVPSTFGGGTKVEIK	pKd	9.22
393E9_hVH5_hVL4 (antibody, V domains shown, humanized) VH: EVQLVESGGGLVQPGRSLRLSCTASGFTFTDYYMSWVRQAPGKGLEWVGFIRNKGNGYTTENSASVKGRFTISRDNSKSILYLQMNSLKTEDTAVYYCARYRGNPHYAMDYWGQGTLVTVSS VL: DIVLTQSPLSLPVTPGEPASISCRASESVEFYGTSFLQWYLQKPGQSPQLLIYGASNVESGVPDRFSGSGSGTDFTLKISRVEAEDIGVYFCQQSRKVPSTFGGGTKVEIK	pKd	9.17
